# system.under.test: T1, CD134 expressed on the cell surface of HT1080_OX40 cells (human, UniProt P43489 29-277)
# T1 sequence (looked up): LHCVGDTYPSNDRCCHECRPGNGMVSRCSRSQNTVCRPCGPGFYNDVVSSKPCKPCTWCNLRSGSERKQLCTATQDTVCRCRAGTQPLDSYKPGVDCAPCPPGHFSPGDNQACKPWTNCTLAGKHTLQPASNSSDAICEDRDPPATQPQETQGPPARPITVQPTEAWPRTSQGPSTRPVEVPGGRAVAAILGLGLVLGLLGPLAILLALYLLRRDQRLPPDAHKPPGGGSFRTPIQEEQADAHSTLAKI
# assay.info: cell-based or functional assay

{"binder": "P018.S.11.A.C04 (antibody, V domains shown, V regions on human Ig constant parts; also called AB134_29) VH: QSVEESGGRLVTPGTPLTLTCTVSGFSLGSYPMIWVRQAPGKGLEWIGYIDPGRGTTLYASWARGLFTISKTSTTVDLAMTSPTAADTATYFCARSYPGDGAGDLWGQGTLVTVSS VL: DVVMTQTPASVSEPVGGTVTIKCQASESISNYFSWYQQKPGQPPKLLIYGASTLESGVSSRFKGSGSGTDFTLTISDLESADAATYYCQCTYYGSGDVGGAFGGGTEVVVK", "EC 50 (IL-8 release, cross-linked)": "0.785 µg/mL"}
{"binder": "P018.S.12.A.F05 (antibody, V domains shown, V regions on human Ig constant parts; also called AB134_81) VH: QSLEESGGGLVQPGGSLKLSCKASGIDFSSYGVSWVRQAPGKGLEWIAYTYPDYGSTDYASWVNGRFTISLDNAQNTVFLQMTSLTAADTATYFCASSSNGWGGGFYFDLWGPGTLVTVSS VL: ALVMTQTPSPVSAAVGGTVTINCQASEDIYSNLAWFQQKPGQPPKLLIYGASTLASGVPSRFSGSGSGTEFTLTINDLKSDDAATYYCLGVYTYITTDPNAFGGGTEVVVK", "EC 50 (IL-8 release, cross-linked)": "0.733 µg/mL"}
